Molecular target: EP2 subtype of the human PGE2 receptor (Homo sapiens, UniProt P43116)
Sequence (P43116 whole entry): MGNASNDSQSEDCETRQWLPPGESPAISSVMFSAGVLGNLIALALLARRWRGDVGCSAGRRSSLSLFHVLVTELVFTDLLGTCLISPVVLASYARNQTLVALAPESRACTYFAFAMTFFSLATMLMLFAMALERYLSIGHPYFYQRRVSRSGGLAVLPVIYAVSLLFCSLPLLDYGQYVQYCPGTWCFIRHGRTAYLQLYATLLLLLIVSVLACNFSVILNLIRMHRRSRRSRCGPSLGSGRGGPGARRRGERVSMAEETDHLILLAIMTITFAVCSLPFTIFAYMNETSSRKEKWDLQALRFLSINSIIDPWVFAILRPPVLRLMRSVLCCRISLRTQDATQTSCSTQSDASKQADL
Experiment: cAMP antagonism test on the human EP2 receptor (HTRF cAMP detection)
Type: cell-based
Conditions: hEP2 receptor, read-out: Antagonism hEP2 IC50
pIC50: −log10 of the molar value.

{"columns": ["compound", "pIC50"],
 "data": [
  ["Cc1cc2nn(CC3CN(C(=O)c4ccc(Oc5ccc(F)cc5)cc4)C3)cc2cc1C(=O)NCCSC(F)(F)F", 7.01],
  ["COCCNC(=O)c1ccc2nn(CC3CN(C(=O)c4ccc(C(F)(F)F)cc4F)C3)cc2c1OC", 7.08],
  ["Cc1c(C(=O)NCC2COCCO2)ccc2nn(CC3CN(C(=O)c4ccc(Cl)cc4)C3)cc12 (single isomer, unassigned) [Example 142]", 6.15],
  ["Cc1c(C(=O)NCCCO)ccc2nn(CC3CCN(C(=O)c4ccc(Cl)cc4)CC3)cc12", 6.77],
  ["COCCNC(=O)c1ccc2nn(C[C@@H]3CCN(C(=O)c4ccc(OC(F)(F)F)cc4)C3)cc2c1C", 6.89],
  ["Cc1c(C(=O)NCC(C)OCC2CC2)ccc2nn(CC3CCN(C(=O)c4ccc(Cl)cc4)CC3)cc12 (racemic)", 6.39],
  ["COCCNC(=O)c1ccc2nn(CC3CCN(C(=O)c4ccc(Cl)cc4F)CC3)cc2c1OC", 7.47],
  ["Cc1cc2nn(CC3CN(C(=O)c4ccc(-c5ccc(F)cc5)cc4)C3)cc2cc1C(=O)NCC(F)(F)F", 7.07],
  ["COCCNC(=O)c1ccc2nn(CC3CCN(C(=O)c4ccc(-c5ccc(F)cc5F)cc4)CC3)cc2c1C", 8.25],
  ["COCCNC(=O)c1ccc2nn(CC3CN(C(=O)c4ccc(Oc5ccc(F)cc5)cc4)C3)cc2c1C", 8.20],
  ["Cc1c(C(=O)NCC(F)(F)F)ccc2nn(CC3CCN(C(=O)c4ccc(-c5ccc(C(F)(F)F)cn5)cc4)CC3)cc12", 6.80],
  ["Cc1c(C(=O)NCCOCC(F)(F)F)ccc2nn(CC3CN(C(=O)c4ccc(Oc5ccc(C(F)(F)F)cc5)cc4)C3)cc12", 8.17],
  ["COCCNC(=O)c1ccc2nn(CC3CCN(C(=O)c4ccc(C(C)(C)C)cc4)CC3)cc2c1C", 8.19],
  ["COCCNC(=O)c1ccc2nn(CC3CCN(C(=O)c4ccc(OC(C)C)cc4F)CC3)cc2c1C", 7.82],
  ["COCCNC(=O)c1ccc2nn(CC3CCN(C(=O)c4ccc(-c5cc(F)cc(F)c5)c(C)c4)CC3)cc2c1C", 8.22]
]}
